Hello, the source for this data is patent US10596185B2, in case you need it.

Test system: NF-kB
Test: NF-kB-luciferase assay system in C2C12 cell line
Type: cell-based
Settings: Mus musculus; NF-kB inhibition, C2C12 cell line, NF-kB-luciferase; read-out: EC50
Experimental: Activity of the complex was measured using a C2C12 cell line with a NF-kB-luciferase assay system (Affymetrix, Santa Clara, Calif.), and compared to a number of flavonoid controls.
Quick reference: log10 of EC50 of the listed items.
Please keep in mind that the values are log10 of EC50 expressed in µg/mL.

Recorded log10 of EC50, per entry:
COc1ccc(-c2cc(=O)c3c(O)cc(O[C@@H]4O[C@H](CO[C@@H]5O[C@@H](C)[C@H](O)[C@@H](O)[C@H]5O)[C@@H](O)[C@H](O)[C@H]4O)cc3o2)cc1O
2.54
O=c1c(O)c(-c2ccc(O)c(O)c2)oc2cc(O)cc(O)c12
1.50
COc1ccc([C@@H]2CC(=O)c3c(O)cc(O)cc3O2)cc1O
1.73
O=C1C[C@@H](c2ccc(O)cc2)Oc2cc(O)cc(O)c21
1.51
C[C@@H]1O[C@@H](O[C@H]2[C@H](Oc3cc(O)c4c(c3)O[C@H](c3ccc(O)cc3)CC4=O)O[C@H](CO)[C@@H](O)[C@@H]2O)[C@H](O)[C@H](O)[C@H]1O
2.58

Next item in the queue.
The compound listed as C[C@@H]1O[C@@H](OC[C@H]2O[C@@H](Oc3cc(O)c4c(c3)O[C@H](c3ccc(O)c(O)c3)CC4=O)[C@H](O)[C@@H](O)[C@@H]2O)[C@H](O)[C@H](O)[C@H]1O [Eriocitrin, eriodictyol 7-O-B-rutinoside] shows log10 of EC50 equal to 1.85
